- Tested System: angiotensin converting enzyme (Oryctolagus cuniculus, UniProt P12822)
- Sequence (P12822 34-1310): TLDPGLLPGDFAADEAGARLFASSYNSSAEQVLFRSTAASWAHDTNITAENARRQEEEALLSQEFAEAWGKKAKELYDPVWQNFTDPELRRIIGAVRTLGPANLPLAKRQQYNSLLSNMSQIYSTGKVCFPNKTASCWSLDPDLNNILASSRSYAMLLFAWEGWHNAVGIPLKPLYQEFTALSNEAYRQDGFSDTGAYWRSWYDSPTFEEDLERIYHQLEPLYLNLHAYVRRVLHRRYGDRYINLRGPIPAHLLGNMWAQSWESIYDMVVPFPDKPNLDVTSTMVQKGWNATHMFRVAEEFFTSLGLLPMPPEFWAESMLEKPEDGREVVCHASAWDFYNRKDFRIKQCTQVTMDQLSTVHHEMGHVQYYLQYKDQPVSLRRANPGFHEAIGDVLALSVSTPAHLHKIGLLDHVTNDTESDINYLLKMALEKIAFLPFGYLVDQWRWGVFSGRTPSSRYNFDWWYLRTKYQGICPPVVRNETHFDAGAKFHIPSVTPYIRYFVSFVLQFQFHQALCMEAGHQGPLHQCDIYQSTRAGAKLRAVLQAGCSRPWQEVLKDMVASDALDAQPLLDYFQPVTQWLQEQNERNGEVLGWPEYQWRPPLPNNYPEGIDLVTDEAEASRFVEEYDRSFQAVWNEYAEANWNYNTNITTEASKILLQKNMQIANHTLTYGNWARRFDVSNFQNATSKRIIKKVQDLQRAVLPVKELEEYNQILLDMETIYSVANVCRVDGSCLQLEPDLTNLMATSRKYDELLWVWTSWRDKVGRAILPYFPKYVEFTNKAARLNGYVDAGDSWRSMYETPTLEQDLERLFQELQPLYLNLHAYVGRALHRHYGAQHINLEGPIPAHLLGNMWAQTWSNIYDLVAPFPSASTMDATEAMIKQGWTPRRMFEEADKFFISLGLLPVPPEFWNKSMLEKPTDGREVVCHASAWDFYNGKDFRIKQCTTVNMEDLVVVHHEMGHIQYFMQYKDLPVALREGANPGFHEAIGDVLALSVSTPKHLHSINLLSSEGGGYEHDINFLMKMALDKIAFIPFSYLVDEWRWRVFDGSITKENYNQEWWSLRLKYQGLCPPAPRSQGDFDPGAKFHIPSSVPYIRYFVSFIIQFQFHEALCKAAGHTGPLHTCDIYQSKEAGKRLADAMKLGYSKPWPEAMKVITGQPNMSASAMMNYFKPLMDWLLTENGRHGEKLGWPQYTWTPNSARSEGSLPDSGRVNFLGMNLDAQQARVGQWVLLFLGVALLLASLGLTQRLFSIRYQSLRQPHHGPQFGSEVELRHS
Readout Type: IC50 (nM)
Numbers only; they are read as nM.

Per the record, NCCCC[C@H](NC(CCc1ccccc1)C(=O)O)C(=O)N(CC(=O)O)c1ccccc1 (mixture of isomers) has IC50 of 146
